Cited source for all entries: ChEMBL document CHEMBL1909294

- System: Hepatotoxicity
Where a SMILES comes first, the peptide text is derived from it. Bridges are numbered along the chain shown (N, C = ends). [ ]: non-standard residue; d: D form. The star is where a group is joined. Threoninol(2S,3R) = C[C@@H](O)[C@H](CO)N*
valueKind: HepSE_hepatitis
API note: the answer field is a bare number with no unit suffix.

In the examples that follow, each entry is paired with its recorded HepSE_hepatitis.
molecule: CNC(=O)c1c(I)c(NC(C)=O)c(I)c(C(=O)O)c1I
targetSystem: Hepatotoxicity
HepSE_hepatitis: 0

molecule: C[C@@H](O)[C@H](CO)NC(=O)[C@@H]1CSSC[C@H](NC(=O)[C@H](N)Cc2ccccc2)C(=O)N[C@@H](Cc2ccccc2)C(=O)N[C@H](Cc2c[nH]c3ccccc23)C(=O)N[C@@H](CCCCN)C(=O)N[C@@H]([C@@H](C)O)C(=O)N1 (H-[dF]CF[dW]KTC-{Threoninol(2S,3R)}; disulfide 2-7)
targetSystem: Hepatotoxicity
HepSE_hepatitis: 1

molecule: CC(C)(C)C(=O)OCOP(=O)(COCCn1cnc2c(N)ncnc21)OCOC(=O)C(C)(C)C
targetSystem: Hepatotoxicity
HepSE_hepatitis: 0

molecule: CC[N+](CC)(CCNC(=O)C(=O)NCC[N+](CC)(CC)Cc1ccccc1Cl)Cc1ccccc1Cl
targetSystem: Hepatotoxicity
HepSE_hepatitis: 0

molecule: CC(N)Cc1c[nH]c2ccccc12 (stereo unspecified)
targetSystem: Hepatotoxicity
HepSE_hepatitis: 0

molecule: C#CCN(C)[C@H](C)Cc1ccccc1
targetSystem: Hepatotoxicity
HepSE_hepatitis: 1

Lab note: next molecule to report on.
Query :: # assay system Hepatotoxicity: give HepSE_hepatitis of `C[C@H]1O[C@@H](O[C@H]2[C@@H](O)C[C@H](O[C@H]3[C@@H](O)C[C@H](O[C@H]4CC[C@@]5(C)[C@H](CC[C@@H]6[C@@H]5C[C@@H](O)[C@]5(C)[C@@H](C7=CC(=O)OC7)CC[C@]65O)C4)O[C@@H]3C)O[C@@H]2C)C[C@H](O)[C@@H]1O`
Result :: 0

====

- System: Hepatotoxicity
valueKind: HepSE_jaundice
API note: the answer field is a bare number with no unit suffix.

Query :: # assay system Hepatotoxicity: give HepSE_jaundice of CC(C)(C)NC(=O)[C@H]1CC[C@H]2[C@@H]3CC[C@H]4NC(=O)C=C[C@]4(C)[C@H]3CC[C@]12C [FINASTERIDE]
Result :: 0

Query :: # assay system Hepatotoxicity: give HepSE_jaundice of CC1COc2c(N3CCN(C)CC3)c(F)cc3c(=O)c(C(=O)O)cn1c23 (stereo not drawn)
Result :: 1

Query :: # assay system Hepatotoxicity: give HepSE_jaundice of `OCCN1CCN(CCCN2c3ccccc3Sc3ccc(C(F)(F)F)cc32)CC1`
Result :: 1

Query :: # assay system Hepatotoxicity: give HepSE_jaundice of `O=C1[C@H](CC[C@H](O)c2ccc(F)cc2)[C@@H](c2ccc(O)cc2)N1c1ccc(F)cc1`
Result :: 0

Query :: # assay system Hepatotoxicity: give HepSE_jaundice of `NCCC(O)(P(=O)(O)O)P(=O)(O)O`
Result :: 0

Query :: # assay system Hepatotoxicity: give HepSE_jaundice of `CCOC(=O)[C@H](CCc1ccccc1)N[C@H]1CCc2ccccc2N(CC(=O)O)C1=O`
Result :: 1

Query :: # assay system Hepatotoxicity: give HepSE_jaundice of CCCNC(=O)NS(=O)(=O)c1ccc(Cl)cc1 [CHLORPROPAMIDE]
Result :: 1

Query :: # assay system Hepatotoxicity: give HepSE_jaundice of `CN1CCN(CCCN2c3ccccc3Sc3ccc(C(F)(F)F)cc32)CC1`
Result :: 1
